Tested on: Fibroblast
Test: Incucyte cell viability with human fibroblast; also: unitless GR value; below 1 slowed growth and below 0 cell loss
Format: toxicity, cell-based
Settings: 18 h, 10 µM, compound concentration 10 uM, replicate number 2, timepoint 18 hours
Listing of recorded Growth Rate by entry.
Quantity Name: Growth Rate

| Molecule | Assay Target | Quantity Name | Numeric Result |
| --- | --- | --- | --- |
| Cl.N=C(N)NC(=O)Cc1c(Cl)cccc1Cl [GUANFACINE HYDROCHLORIDE] | Fibroblast | Growth Rate | 0.92 |
| CCc1nc2c(C)cc(C)nc2[nH]1 | Fibroblast | Growth Rate | 0.92 |
| CCc1cc2c(cc1-c1cccc(S(=O)(=O)F)c1)C(C)(C)c1[nH]c3cc(C#N)ccc3c1C2=O | Fibroblast | Growth Rate | 0.47 |
| CO/C1=C/C(C)=C\[C@@H](C)[C@@H](O)[C@@H](C)C/C(C)=C\C=C/[C@H](OC)C([C@@H](C)[C@@H](O)[C@H](C)[C@@]2(O)C[C@@H](O)[C@H](C)[C@@H](C(C)C)O2)OC1=O (stereo partly drawn) | Fibroblast | Growth Rate | -0.46 |
| Cc1cc(Cn2nnc3c(-c4ccco4)nc(N)nc32)ccc1N | Fibroblast | Growth Rate | 0.81 |
| CN1CCN(c2ccc(Nc3c4ccccc4nc4ccccc34)cc2)CC1.Cl.Cl.O | Fibroblast | Growth Rate | 0.08 |
| CN(CCN1CCC(OC(=O)Nc2ccccc2-c2ccccc2)CC1)C(=O)c1ccc(CN2CCC(C(N)=O)CC2)cc1 | Fibroblast | Growth Rate | 0.9 |
| C(#Cc1cccc(CN2CCOCC2)c1)CCN1CCCCC1 | Fibroblast | Growth Rate | 0.23 |

----------
Test system: HEK-293T
Assay: Incucyte cell viability with HEK293T; also: unitless GR value; below 1 slowed growth and below 0 cell loss
Assay type: toxicity, cell-based
Conditions: human, 0 h, 10 µM, compound concentration 10 uM, replicate number 2, timepoint 0 hours

| Compound | Assay Target | Growth Rate |
| --- | --- | --- |
| COC(=O)[C@H](CCCNC(=N)N)NC(=O)CCCc1c(-c2ccccc2)[nH]c2c(F)cc(F)cc12.O=C(O)C(F)(F)F | HEK-293T | 0.81 |
| O=C([O-])[C@H]1O[C@H](OP(=O)([O-])OP(=O)([O-])OC[C@H]2O[C@@H](n3ccc(=O)[nH]c3=O)[C@H](O)[C@@H]2O)[C@H](O)[C@@H](O)[C@@H]1O.[Na+].[Na+].[Na+] | HEK-293T | -0.02 |
| O=C(O)COc1cccc(-c2ocnc2-c2nc(-c3ccccc3)c(-c3ccccc3)o2)c1 | HEK-293T | -0.17 |
| N#Cc1cc(F)cc(-c2nc(-c3ccc(F)cn3)no2)c1 | HEK-293T | 0.21 |
| O=C1NC(NC23CC4CC(CC(C4)C2)C3)=N/C1=C\c1ccc2ncsc2c1 | HEK-293T | -0.17 |
| Cc1c(CC(=O)O)c2cccnc2n1Cc1ccc(S(C)(=O)=O)cc1C(F)(F)F [FEVIPIPRANT] | HEK-293T | 0.79 |
| NC[C@H](O)c1ccc(O)c(O)c1.O.O=C(O)C(O)C(O)C(=O)O | HEK-293T | 0.69 |
| Cc1cc(Cn2nnc3c(-c4ccco4)nc(N)nc32)ccc1N [VIPADENANT] | HEK-293T | 0.5 |

----------
System: Fibroblast
Test: Incucyte cell viability with human fibroblast; also: unitless GR value; below 1 slowed growth and below 0 cell loss
Type: toxicity, cell-based
Settings: 12 h, 10 µM, compound concentration 10 uM, replicate number 1, timepoint 12 hours
Where a SMILES comes first, the peptide text is derived from it. Bridges are numbered along the chain shown (N, C = ends). [ ]: non-standard residue; d: D form. Orn = NCCC[C@H](N)C(=O)O; Mpa = O=C(O)CCS

| Compound | Growth Rate |
| --- | --- |
| O=S(=O)(c1ccccc1)c1cnc2c(N3CCNCC3)cccc2c1 [INTEPIRDINE] | 0.57 |
| CC(C)(C)c1ccc(-c2coc3ccc(-c4cn[nH]c4)nc23)cc1 | -0.7 |
| CCc1cc2c(cc1-c1cccc(S(=O)(=O)F)c1)C(C)(C)c1[nH]c3cc(C#N)ccc3c1C2=O | -0.15 |
| COc1cc2nc(N3CCN(C(=O)COc4c(OC)cccc4C(C)C)CC3)nc(N)c2cc1OC.Cl.Cl | -0.84 |
| CC1=C(C)C(=O)C(C(C)(C)CC(=O)N(CCCCSC[C@H]2O[C@@H](n3cnc4c(N)ncnc43)[C@H](O)[C@@H]2O)Cc2cccc(-c3ccc(Cl)cc3)c2)=C(C)C1=O | 0.78 |
| Cc1cnc(-c2cc(N3CCN(C(=O)CCS(C)(=O)=O)CC3)ncc2Cl)c(C)c1 | 0.76 |
| CCOc1ccc(C[C@H]2NC(=O)CCSSC[C@@H](C(=O)N3CCC[C@H]3C(=O)N[C@@H](CCCN)C(=O)NCC(N)=O)NC(=O)[C@H](CC(N)=O)NC(=O)[C@H]([C@@H](C)O)NC(=O)[C@H]([C@@H](C)CC)NC2=O)cc1 [ATOSIBAN] ([Mpa][dY](Et)ITNCP[Orn]G-NH2; disulfide 1-6) | 0.64 |
| CN[C@@H]1Cc2cccc3[nH]c(=O)n(c23)C1.O=C(O)/C=C\C(=O)O | 0.68 |
| NC(=O)c1cc2c(-c3ccc(C(=O)NCc4ccnc(Cl)c4)s3)cccc2s1 | -0.77 |
| C[C@H](N)Cn1ccc2cc(F)c(Cl)cc21.O=C(O)/C=C/C(=O)O | 0.49 |
| CSCC[C@H](NC=O)C(=O)N[C@@H](CC(C)C)C(=O)N[C@@H](Cc1ccccc1)C(=O)O | 0.83 |
| Cc1nnc2n1-c1sc(CCC(=O)N3CCOCC3)cc1C(c1ccccc1Cl)=NC2 [APAFANT] | 0.81 |
| N[C@@H]1c2cccnc2[C@H](OC(=O)N2CCC(n3c(=O)[nH]c4ncccc43)CC2)CC[C@H]1c1cccc(F)c1F [RIMEGEPANT] | -0.05 |
| C[C@H](CCC(=O)O)[C@H]1CC[C@H]2[C@@H]3CC[C@@H]4C[C@H](O)CC[C@]4(C)[C@H]3CC[C@]12C [LITHOCHOLIC ACID] | 0.42 |
| NCCc1cn(S(=O)(=O)c2c(Cl)nc3sccn23)c2ccccc12.O=C(O)C(=O)O | -0.66 |
| O=C(O)COc1cccc(-c2ocnc2-c2nc(-c3ccccc3)c(-c3ccccc3)o2)c1 | 0.59 |
| CC(C)C[C@@H](NC(=O)[C@H](Cc1ccccc1)NC(=O)CNC(=O)[C@@H](C)NC(=O)[C@@H](N)Cc1ccc(O)cc1)C(=O)O [DADLE] | 0.89 |
| CC[S+]([O-])c1nc(-c2cccc(OCc3ccccc3)c2)cc(C(F)(F)F)n1 (centres undefined) | -0.65 |
| Cc1ccc(-c2ccc(F)cc2COc2ccc(CCC(=O)O)cc2)cc1 | 0.58 |
| N[C@@H](CCP(=O)(O)O)C(=O)O | 0.45 |
| Cc1nc2ccc(Oc3ccc(F)cc3)cc2c(=O)n1C[C@H]1CCCN(C(C)C)C1.Cl | -0.26 |
| Br.Br.N=C(N)NCCSC(=N)N | 0.19 |
| N[C@@]1(C(=O)O)CC[C@H]2[C@H](C(=O)O)[C@H]21 | 0.44 |
| CN(CCN1CCC(OC(=O)Nc2ccccc2-c2ccccc2)CC1)C(=O)c1ccc(CN2CCC(C(N)=O)CC2)cc1 [REVEFENACIN] | 0.73 |
| C[C@]12N[C@H](Cc3ccccc31)c1ccccc12 [DIZOCILPINE] | 0.08 |
| Cc1cc(CN)cc(C)c1-c1ncn(C)c1-c1ccnc2cc(F)ccc12 | 0.5 |
| C[C@H]1[C@H](OC(=O)CCC(=O)O)O[C@@H]2O[C@@]3(C)CC[C@H]4[C@H](C)CC[C@@H]1[C@@]24OO3 [ARTESUNATE] | 0.22 |
| CC[C@H](NC(=O)c1c(C)c(-c2ccccc2)nc2ccccc12)c1ccccc1 [SB-222200] | 0.45 |
| CSc1nc(NC2CCCC2)c([N+](=O)[O-])c(NC2CCCC2)n1 [GS-39783] | -0.14 |
| O=C1NC(=Nc2c(Cl)cccc2Cl)S/C1=C\c1ccc2nccnc2c1 | 0.09 |
| Cc1sc2c(c1C)C(c1ccc(Cl)cc1)=N[C@@H](CC(=O)NCCCCCCCCNC(=O)COc1cccc3c1C(=O)N(C1CCC(=O)NC1=O)C3=O)c1nnc(C)n1-2 (some centres undefined) | -0.48 |
| CCC(=O)NC[C@@H]1C[C@H]1c1cccc2c1CCO2 [TASIMELTEON] | 0.48 |
| O=C(O)CCC/C=C\CC1C(O)CC(O)C1/C=C/C(O)COc1cccc(Cl)c1 (centres undefined) [CLOPROSTENOL] | 0.25 |
| O=C(O)CCc1ccc(NCc2cccc(Oc3ccccc3)c2)cc1 [GW9508] | 1 |
